Reported values of % positive cells for individual entries
biological target: T1, human CCR8 (human, UniProt P51685 1-355); assay: flow cytometry, hCCR8 transfected CHOK1 cells
T1 construct: the cells are named under assay; also called hCCR8

{"Binder": "3-34 (antibody, V domains shown) VH: EVQLQQSGPELVKPGASVKISCKTSGYTFTEYTIHWVKQSHGKSLEWVGGINPDNGNTRYDQKFKGKATLTIDKSSSTAYMELRSLTSEDSAVYYCARVARSSGSGPYAMDYWGQGTSVTVSS VL: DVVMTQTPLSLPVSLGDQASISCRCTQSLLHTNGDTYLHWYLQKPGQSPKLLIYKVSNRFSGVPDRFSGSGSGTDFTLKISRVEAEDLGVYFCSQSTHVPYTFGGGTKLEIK", "% positive cells [%]": 73.7}
{"Binder": "3-29 (antibody, V domains shown) VH: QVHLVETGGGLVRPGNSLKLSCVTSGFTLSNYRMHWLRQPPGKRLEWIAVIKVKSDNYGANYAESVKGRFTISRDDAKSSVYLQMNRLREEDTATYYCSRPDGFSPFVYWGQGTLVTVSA VL: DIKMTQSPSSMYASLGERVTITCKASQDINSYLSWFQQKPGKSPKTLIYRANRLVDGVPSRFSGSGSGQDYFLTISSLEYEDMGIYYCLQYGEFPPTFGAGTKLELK", "% positive cells [%]": 71.3}
{"Binder": "3-33 (antibody, V domains shown) VH: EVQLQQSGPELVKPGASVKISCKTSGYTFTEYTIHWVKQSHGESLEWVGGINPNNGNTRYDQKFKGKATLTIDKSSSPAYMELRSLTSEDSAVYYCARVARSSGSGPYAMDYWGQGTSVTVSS VL: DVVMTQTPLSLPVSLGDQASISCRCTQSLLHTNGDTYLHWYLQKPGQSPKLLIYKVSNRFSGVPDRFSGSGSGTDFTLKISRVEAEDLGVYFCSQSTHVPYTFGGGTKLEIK", "% positive cells [%]": 56.2}
